Quantity Name: melting point (°C)
Numbers only, in °C.

1) Br.NC(N)=Nc1nc(-c2ccccc2)cs1 : 209.5

Shifting focus to the compound that follows.
Data point: Cl.NC(N)=Nc1nc(-c2ccc3c(c2)OCC(=O)N3)cs1 ; melting point = 233.3

---

Target: α1G T-type calcium channel (Homo sapiens, UniProt O43497)
Construct: host or cells: HEK293
Sequence (O43497 whole entry): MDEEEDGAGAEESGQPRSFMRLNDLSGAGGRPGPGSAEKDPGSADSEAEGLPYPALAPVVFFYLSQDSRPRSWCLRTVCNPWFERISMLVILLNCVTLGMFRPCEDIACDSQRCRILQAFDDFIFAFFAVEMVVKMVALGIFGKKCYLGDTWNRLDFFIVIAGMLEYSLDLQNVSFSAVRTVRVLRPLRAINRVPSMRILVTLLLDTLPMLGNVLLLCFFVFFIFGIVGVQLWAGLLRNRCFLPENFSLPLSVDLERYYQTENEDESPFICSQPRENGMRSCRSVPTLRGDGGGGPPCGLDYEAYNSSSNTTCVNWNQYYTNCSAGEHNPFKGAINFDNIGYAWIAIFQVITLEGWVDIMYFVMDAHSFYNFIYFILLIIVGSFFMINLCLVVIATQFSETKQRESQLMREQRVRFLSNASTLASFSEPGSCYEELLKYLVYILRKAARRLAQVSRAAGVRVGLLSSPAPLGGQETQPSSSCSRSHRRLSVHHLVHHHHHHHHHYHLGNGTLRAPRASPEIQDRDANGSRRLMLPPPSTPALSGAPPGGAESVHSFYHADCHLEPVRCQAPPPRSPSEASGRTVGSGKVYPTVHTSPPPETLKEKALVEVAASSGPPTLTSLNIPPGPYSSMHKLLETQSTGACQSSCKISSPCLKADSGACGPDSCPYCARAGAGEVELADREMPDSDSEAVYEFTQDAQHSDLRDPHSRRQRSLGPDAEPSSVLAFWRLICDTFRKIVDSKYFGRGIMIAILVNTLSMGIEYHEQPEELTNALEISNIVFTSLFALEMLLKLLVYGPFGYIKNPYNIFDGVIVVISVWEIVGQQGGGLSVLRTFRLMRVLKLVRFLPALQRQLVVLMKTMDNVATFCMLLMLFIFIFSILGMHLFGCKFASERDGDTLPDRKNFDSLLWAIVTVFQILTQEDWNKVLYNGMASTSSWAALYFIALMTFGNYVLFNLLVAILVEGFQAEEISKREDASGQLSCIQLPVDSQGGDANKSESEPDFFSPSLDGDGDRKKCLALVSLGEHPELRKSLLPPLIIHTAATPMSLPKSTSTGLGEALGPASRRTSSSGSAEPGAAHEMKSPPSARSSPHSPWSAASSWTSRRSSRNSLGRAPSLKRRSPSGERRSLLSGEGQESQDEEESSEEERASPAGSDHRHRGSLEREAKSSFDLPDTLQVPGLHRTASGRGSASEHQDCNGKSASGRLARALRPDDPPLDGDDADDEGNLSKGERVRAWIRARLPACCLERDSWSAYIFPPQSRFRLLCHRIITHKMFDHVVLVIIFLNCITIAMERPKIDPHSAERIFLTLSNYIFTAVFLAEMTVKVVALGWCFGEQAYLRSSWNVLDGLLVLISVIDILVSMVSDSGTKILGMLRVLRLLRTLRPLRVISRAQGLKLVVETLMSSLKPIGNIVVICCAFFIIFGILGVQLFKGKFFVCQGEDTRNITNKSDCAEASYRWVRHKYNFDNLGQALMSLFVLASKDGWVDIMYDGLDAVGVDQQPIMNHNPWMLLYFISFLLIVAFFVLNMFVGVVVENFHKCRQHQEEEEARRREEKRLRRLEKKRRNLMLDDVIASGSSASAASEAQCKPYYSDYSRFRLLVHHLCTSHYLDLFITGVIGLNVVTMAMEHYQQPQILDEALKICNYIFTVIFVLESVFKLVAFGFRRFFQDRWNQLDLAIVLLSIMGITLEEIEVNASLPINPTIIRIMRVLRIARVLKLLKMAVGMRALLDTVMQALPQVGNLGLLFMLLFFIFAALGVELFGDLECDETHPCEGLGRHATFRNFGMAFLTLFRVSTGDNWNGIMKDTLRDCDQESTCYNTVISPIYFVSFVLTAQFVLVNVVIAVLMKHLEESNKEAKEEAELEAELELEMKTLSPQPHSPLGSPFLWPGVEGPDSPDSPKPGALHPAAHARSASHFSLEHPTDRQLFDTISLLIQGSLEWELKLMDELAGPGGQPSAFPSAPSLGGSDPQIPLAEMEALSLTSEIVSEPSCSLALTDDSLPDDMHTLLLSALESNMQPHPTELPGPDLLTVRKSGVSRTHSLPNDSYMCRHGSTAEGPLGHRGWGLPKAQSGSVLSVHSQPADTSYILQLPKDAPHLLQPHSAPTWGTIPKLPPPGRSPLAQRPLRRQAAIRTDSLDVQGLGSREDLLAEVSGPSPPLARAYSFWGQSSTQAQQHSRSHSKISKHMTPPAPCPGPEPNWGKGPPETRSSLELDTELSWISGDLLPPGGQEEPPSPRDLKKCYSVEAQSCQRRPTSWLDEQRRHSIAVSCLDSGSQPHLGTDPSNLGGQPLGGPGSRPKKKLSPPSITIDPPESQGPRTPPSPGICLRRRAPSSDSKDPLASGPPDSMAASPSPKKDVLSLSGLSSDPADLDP
Assay: Assay for % inhibiting activity against T-type calcium channel using FDSS6000
Format: cell-based
Settings: 10 μM; HEK293 cells expressing α1G; Table 3 (Chemical Formula 2 series); hydrochloride
Provide the recorded % Inhibition [α1G, 10 μM) using FDSS6000 for the entries that follow.
Numbers only, in %.

Previously resolved entries follow.
1) Cc1ccc(NC(=O)Cc2csc(N=C(N)N)n2)cc1Cl.Cl [KHG23170] : 30.68
2) COc1ccc(NC(=O)Cc2csc(N=C(N)N)n2)cc1F.Cl [KHG23399] : 3.4
3) CCCCCCc1ccc(NC(=O)Cc2csc(N=C(N)N)n2)cc1.Cl [KHG23386] : 4.5
4) Cc1ccc(NC(=O)Cc2csc(N=C(N)N)n2)cc1Cl.Cl [KHG23397] : 14.2

Shifting focus to the compound that follows.
Bench note, α1G T-type calcium channel (Homo sapiens, UniProt O43497): COc1ccc(NC(=O)Cc2csc(N=C(N)N)n2)cc1F.Cl [KHG23179] , % Inhibition [α1G, 10 μM) using FDSS6000 reads 30.76
